Exercise: state measured IC50 for each of the compounds provided.
Tested on: HCT116 WT cells
Test: HCT116 proliferation assay, WT cells (CellTiter-Glo, 6 days)
Assay type: cell-based
Details: Homo sapiens, HCT-116, 144 h, read-out: Prolif_HCT116-WT IC50
Return type: number; implicit unit nM.

Per the record, COc1ccc(CN(C(=O)c2ccc3nc(N)c(C)cc3c2)[C@H](C)c2ncn(C)n2)nn1 (single isomer, unassigned) has IC50 of 2600

Entry Cc1c(N)nc2ccc(C(=O)N(Cc3ccc(C#N)cn3)[C@H](C)c3ncccn3)cc2c1C , IC50 reported as 478

Entry under test: Cc1cc2cc(C(=O)N(Cc3ccc(C#N)cn3)[C@@H]3CCOc4cccnc43)ccc2nc1N (single isomer, unassigned) . Its IC50 was 1700
